The origin of these recorded values is patent US20260207602A1.

- Tested system: EGFR L858R (Homo sapiens, UniProt P00533, L858R)
- Construct: purchased SignalChem E10-122BG
- Sequence (P00533 25-1210 L858R): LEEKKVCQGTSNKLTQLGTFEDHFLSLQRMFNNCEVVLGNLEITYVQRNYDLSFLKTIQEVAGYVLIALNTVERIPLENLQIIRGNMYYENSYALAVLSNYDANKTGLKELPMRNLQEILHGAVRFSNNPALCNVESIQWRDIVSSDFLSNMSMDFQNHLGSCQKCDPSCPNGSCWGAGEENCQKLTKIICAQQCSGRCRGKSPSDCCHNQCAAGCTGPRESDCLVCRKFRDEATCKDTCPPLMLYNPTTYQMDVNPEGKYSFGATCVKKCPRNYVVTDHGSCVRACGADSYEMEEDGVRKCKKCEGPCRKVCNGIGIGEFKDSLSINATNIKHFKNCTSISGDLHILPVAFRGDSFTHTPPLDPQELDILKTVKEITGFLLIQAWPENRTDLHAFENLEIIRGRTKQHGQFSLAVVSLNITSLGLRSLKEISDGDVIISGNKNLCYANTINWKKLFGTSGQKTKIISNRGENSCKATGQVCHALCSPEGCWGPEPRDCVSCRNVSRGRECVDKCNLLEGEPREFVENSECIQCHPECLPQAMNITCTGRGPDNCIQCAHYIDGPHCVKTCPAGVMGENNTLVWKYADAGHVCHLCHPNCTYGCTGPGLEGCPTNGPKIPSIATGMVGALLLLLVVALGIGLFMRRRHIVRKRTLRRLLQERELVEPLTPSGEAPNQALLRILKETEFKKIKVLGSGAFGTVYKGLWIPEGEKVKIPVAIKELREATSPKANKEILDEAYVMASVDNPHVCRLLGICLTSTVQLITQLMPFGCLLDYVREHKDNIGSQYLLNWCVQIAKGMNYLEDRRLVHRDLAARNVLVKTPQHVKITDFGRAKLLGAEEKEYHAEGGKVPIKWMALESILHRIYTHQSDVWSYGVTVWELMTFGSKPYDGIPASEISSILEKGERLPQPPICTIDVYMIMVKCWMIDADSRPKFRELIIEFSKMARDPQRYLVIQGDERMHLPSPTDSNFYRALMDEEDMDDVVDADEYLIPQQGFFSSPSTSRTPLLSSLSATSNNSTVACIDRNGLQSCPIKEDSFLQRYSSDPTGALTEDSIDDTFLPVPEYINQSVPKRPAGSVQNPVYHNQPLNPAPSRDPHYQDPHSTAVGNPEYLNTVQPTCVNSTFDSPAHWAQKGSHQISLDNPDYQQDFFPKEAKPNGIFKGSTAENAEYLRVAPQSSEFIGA
- Assay overview: Biochemical EGFR inhibition assay (Caliper mobility shift), EGFR L858R
- Conditions: biochemical Caliper mobility shift assay, EGFR L858R enzyme; read-out: Enz EGFR L858R IC50
Measured parameter: IC50

Molecule | Result
C[C@@H](Oc1cc(-c2cnn(C)c2)cc2ncnc(Nc3ccc4ncsc4c3F)c12)C1CN(C)C1 (single isomer, unassigned) [Example 387] | ≤ 10 nM
Cc1ccnn1-c1cc(OC2CCOCC2)c2c(Nc3ccc4ncsc4c3)ncnc2c1 [Example 135] | 10.1 to 50 nM
C[C@H](CN(C)C)Oc1cc(N2CCOCC2)cc2ncnc(Nc3ccc4ncsc4c3F)c12 [Example 183] | 10.1 to 50 nM
CN1CCC(n2cc(-c3cc(F)c4c(Nc5ccc6ncsc6c5F)ncnc4c3)cn2)CC1 [Example 227] | ≤ 10 nM
CN1CC[C@@H](Oc2cc(-c3cnn(C)c3)cc3ncnc(Nc4ccc5ncsc5c4F)c23)C1 [Example 4] | 10.1 to 50 nM
C[C@@H](Oc1cc(-c2cnn(C)c2)cc2ncnc(Nc3ccc4ncsc4c3F)c12)C1(C)COC1 (single isomer, unassigned) [Example 87] | ≤ 10 nM
COC[C@H](C)Oc1cc(-c2cnn(C)c2)cc2ncnc(Nc3ccc4ncsc4c3F)c12 [Example 139] | ≤ 10 nM
CN1CC[C@H](Oc2cc(-c3cn(C)nc3OC(F)F)cc3ncnc(Nc4ccc5ncsc5c4)c23)[C@@H](F)C1 (single isomer, unassigned) [Example 368] | ≤ 10 nM
CN1CC[C@@H](Oc2cc(-c3cnn(C)c3)cc3ncnc(Nc4ccc5ncsc5c4)c23)[C@@H](F)C1 (racemic) [Example 339] | ≤ 10 nM
COC[C@@H](C)Oc1cc(N2CCN(C)C[C@H]2C)cc2ncnc(Nc3ccc4ncsc4c3)c12 (single isomer, unassigned) [Example 212] | 10.1 to 50 nM
Cn1cc(-c2cc(OCC3CCOC3)c3c(Nc4ccc5ncsc5c4)ncnc3c2)cn1 (centres unmarked) [Example 413] | ≤ 10 nM
Cn1cc(-c2cc(OC3CCCOC3)c3c(Nc4ccc5ncsc5c4)ncnc3c2)cn1 (single isomer, unassigned) [Example 6] | ≤ 10 nM
CN1CC[C@H](Nc2cc3c(Nc4ccc5ncsc5c4)ncnc3cc2-c2ccn(C)n2)[C@H](F)C1 (single isomer, unassigned) [Example A05] | ≤ 10 nM
COCCOc1cc(O[C@H](C)C2COC2)c2c(Nc3ccc4ncsc4c3F)ncnc2c1 (single isomer, unassigned) [Example 84] | ≤ 10 nM

* * *

- Tested system: EGFR L858R (Homo sapiens, UniProt P00533, L858R)
- Construct: purchased SignalChem E10-122BG
- Assay overview: Biochemical EGFR inhibition assay (Caliper mobility shift), EGFR L858R
- Conditions: biochemical Caliper mobility shift assay, EGFR L858R enzyme; read-out: Enz EGFR L858R IC50
Listed molecules paired with reported IC50

Molecule | IC50
CN1CC[C@H](Oc2cc(-c3cn(C)nc3OC(F)F)cc3ncnc(Nc4ccc5ncsc5c4)c23)[C@H](F)C1 | 10.1 to 50 nM
CN1CCC[C@H](Oc2cc(-c3cn(C)nn3)cc3ncnc(Nc4ccc5ncsc5c4)c23)C1 | ≤ 10 nM
CN1CC[C@@H](Nc2cc3c(Nc4ccc5ncsc5c4)ncnc3cc2-c2ccn(C)n2)[C@H](F)C1 (single isomer, unassigned) [Example 328] | ≤ 10 nM
CN1CCC[C@H](Oc2cc(-c3cnn(C)c3)cc3ncnc(Nc4ccc5ncsc5c4F)c23)C1 | ≤ 10 nM
CC(C)Oc1cc(-c2cnn(C)c2)cc2ncnc(Nc3ccc4ncsc4c3)c12 | ≤ 10 nM
Cn1cc(-c2cc(OC3CCN(CC(F)F)CC3)c3c(Nc4ccc5ncsc5c4F)ncnc3c2)cn1 | ≤ 10 nM
Cn1cc(-c2cc(OC[C@@H]3CCCO3)c3c(Nc4ccc5ncsc5c4)ncnc3c2)cn1 | ≤ 10 nM
C[C@@H](Oc1cc(-c2cnn(C)c2)cc2ncnc(Nc3ccc4ncsc4c3)c12)C(F)(F)F | ≤ 10 nM
CC(Oc1cc(-c2cn[nH]c2)cc2ncnc(Nc3ccc4ncsc4c3)c12)C1COC1 (single isomer, unassigned) [Example 123] | ≤ 10 nM
COc1nn(C)cc1-c1cc(O[C@@H]2CCNC[C@H]2F)c2c(Nc3ccc4ncsc4c3F)ncnc2c1 | ≤ 10 nM
COc1nn(C)cc1-c1cc(O[C@@H]2CCNC[C@@H]2F)c2c(Nc3ccc4ncsc4c3)ncnc2c1 | ≤ 10 nM
C[C@@H]1CN(c2cc(O[C@@H](C)CN(C)C)c3c(Nc4ccc5ncsc5c4)ncnc3c2)C[C@H](C)O1 (single isomer, unassigned) | > 50.1 nM
CN1C[C@H](Oc2cc(-c3cnn(C)c3)cc3ncnc(Nc4ccc5ncsc5c4)c23)[C@@H](F)C1 | ≤ 10 nM
COCCN1CCC(Oc2cc(-c3cn(C)nc3OC)cc3ncnc(Nc4ccc5ncsc5c4)c23)CC1 | ≤ 10 nM
Cn1cc(-c2cc(OC3CCN(C4CCOCC4)CC3)c3c(Nc4ccc5ncsc5c4)ncnc3c2)cn1 | 10.1 to 50 nM

* * *

Items are presented alongside their recorded IC50.
- Tested system: intracellular phosphorylation of EGFR (Tyr1068) in PC-9 cells (Homo sapiens, UniProt P00533, DEL746-750)
- Sequence (P00533 with tags, fused parts or gaps DEL746-750): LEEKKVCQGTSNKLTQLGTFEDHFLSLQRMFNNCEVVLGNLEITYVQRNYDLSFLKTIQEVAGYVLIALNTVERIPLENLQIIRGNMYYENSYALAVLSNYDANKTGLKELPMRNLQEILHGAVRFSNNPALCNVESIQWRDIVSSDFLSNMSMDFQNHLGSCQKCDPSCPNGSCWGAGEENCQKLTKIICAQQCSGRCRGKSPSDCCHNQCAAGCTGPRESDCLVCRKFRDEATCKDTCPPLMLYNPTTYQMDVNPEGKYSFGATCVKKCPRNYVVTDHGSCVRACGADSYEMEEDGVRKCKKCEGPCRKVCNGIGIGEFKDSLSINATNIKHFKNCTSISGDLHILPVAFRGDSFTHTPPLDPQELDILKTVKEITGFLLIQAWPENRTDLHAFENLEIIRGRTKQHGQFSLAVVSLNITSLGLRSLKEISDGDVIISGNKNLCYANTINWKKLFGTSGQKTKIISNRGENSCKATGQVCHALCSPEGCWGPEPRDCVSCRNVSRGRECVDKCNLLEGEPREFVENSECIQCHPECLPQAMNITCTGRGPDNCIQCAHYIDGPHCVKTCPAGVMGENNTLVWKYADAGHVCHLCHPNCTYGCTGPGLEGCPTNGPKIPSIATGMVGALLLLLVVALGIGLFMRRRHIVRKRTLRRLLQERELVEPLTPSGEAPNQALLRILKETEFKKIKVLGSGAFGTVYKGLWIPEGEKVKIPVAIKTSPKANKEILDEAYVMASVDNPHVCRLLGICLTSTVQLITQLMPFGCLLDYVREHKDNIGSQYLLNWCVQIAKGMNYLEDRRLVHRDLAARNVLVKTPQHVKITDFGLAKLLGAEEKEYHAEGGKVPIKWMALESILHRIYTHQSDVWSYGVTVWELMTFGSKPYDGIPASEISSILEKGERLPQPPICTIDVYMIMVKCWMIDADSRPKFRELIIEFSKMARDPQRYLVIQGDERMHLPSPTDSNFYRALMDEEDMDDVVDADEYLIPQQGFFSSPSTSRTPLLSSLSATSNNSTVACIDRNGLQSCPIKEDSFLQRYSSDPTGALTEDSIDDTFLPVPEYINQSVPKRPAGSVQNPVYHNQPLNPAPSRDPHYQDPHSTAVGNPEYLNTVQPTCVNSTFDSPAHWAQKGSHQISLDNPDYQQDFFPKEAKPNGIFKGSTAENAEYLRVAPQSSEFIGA
- Assay overview: PC-9 pEGFR AlphaLISA assay
- Conditions: 4 hours incubation, read-out: Phos EGFR PC9 IC50
Measured parameter: IC50

Compound | Measured parameter | Result
C[C@H](CO)Oc1cc(N2CCN(C)CC2)cc2ncnc(Nc3ccc4ncsc4c3F)c12 (single isomer, unassigned) [Example 296] | IC50 | ≤ 10 nM
COCCN1CCC(Oc2cc(-c3nn(C)cc3OC)cc3ncnc(Nc4ccc5ncsc5c4)c23)CC1 | IC50 | 10.1 to 50 nM
COc1nn(C)cc1-c1cc(O[C@@H]2CCN(C)C[C@H]2F)c2c(Nc3ccc4ncsc4c3)ncnc2c1 (single isomer, unassigned) [Example 358] | IC50 | ≤ 10 nM
C[C@@H]1OC[C@@H]1Oc1cc(-c2cnn(C)c2)cc2ncnc(Nc3ccc4ncsc4c3)c12 (racemic) | IC50 | 10.1 to 50 nM
Cn1cc(-c2cc(O[C@@H]3CC[C@H]3O)c3c(Nc4ccc5ncsc5c4)ncnc3c2)cn1 [Example 186] | IC50 | ≤ 10 nM
Cc1ccnn1-c1cc(OC2CCOCC2)c2c(Nc3ccc4ncsc4c3)ncnc2c1 | IC50 | > 50.1 nM
CN1CCC(n2cc(-c3cc(F)c4c(Nc5ccc6ncsc6c5F)ncnc4c3)cn2)CC1 | IC50 | 10.1 to 50 nM

* * *

Entries annotated with measured IC50
- Tested system: intracellular phosphorylation of EGFR (Tyr1068) in PC-9 cells (Homo sapiens, UniProt P00533, DEL746-750)
- Assay overview: PC-9 pEGFR AlphaLISA assay
- Conditions: 4 hours incubation, read-out: Phos EGFR PC9 IC50
- Protocol: PC-9/A431 pEGFR AlphaLISA Assays Inhibitory effects of compounds were evaluated in cellular assays that measure level of intracellular phosphorylation of EGFR in PC-9 (ECACC, #90071810, Milipore/Sigma) and A431 cell lines (ATCC, CRL-1555) using AlphaLISA sureFire ultra p-EGFR (Tyr1068) assay kit (PerkinElmer, ALSU-PEGFR-A50K). […] On the next day, the plate was read the Envision using standard AlphaLisa settings. […]
Measured parameter: IC50

Compound | Result
C[C@H](CN(C)C)Oc1cc(N2CC[C@@H](C(C)(C)O)C2)cc2ncnc(Nc3ccc4ncsc4c3)c12 (single isomer, unassigned) [Example 155] | ≤ 0.01 µM
CC(Oc1cc(-c2cnn(C)c2)cc2ncnc(Nc3ccc4ncsc4c3F)c12)C(=O)N(C)C (stereo not drawn) | ≤ 0.01 µM
C[C@@H](Oc1cc(-c2cnn(C)c2)cc2ncnc(Nc3ccc4ncsc4c3)c12)C1CN(C)C1 (single isomer, unassigned) [Example 384] | 0.0101 to 0.05 µM
COc1nn(C)cc1-c1cc(OC2CCN(C)CC2)c2c(Nc3ccc4ncsc4c3F)ncnc2c1 | 0.0101 to 0.05 µM
COc1nn(C)cc1-c1cc(O[C@H]2CCNC[C@H]2F)c2c(Nc3ccc4ncsc4c3)ncnc2c1 | ≤ 0.01 µM
COc1nn(C)cc1-c1cc(OC2COC2)c2c(Nc3ccc4ncsc4c3)ncnc2c1 | ≤ 0.01 µM
C[C@@H](Oc1cc(-c2cnn(C)c2)cc2ncnc(Nc3ccc4ncsc4c3)c12)C(=O)N1CCOCC1 | ≤ 0.01 µM
COc1cc2ncnc(Nc3ccc4ncsc4c3)c2cc1NC(=O)CCN1CCCCC1 | 0.0101 to 0.05 µM
COc1cc2ncnc(Nc3ccc4ncsc4c3)c2cc1NC(=O)C1CN(C)C1 | 0.0101 to 0.05 µM
COc1cc2ncnc(Nc3ccc4ncsc4c3)c2cc1-c1cnn([C@H]2CCN(C)C[C@@H]2F)c1 (racemic) | 0.0101 to 0.05 µM
C[C@@H](Oc1cc(-c2cnn(C)c2)cc2ncnc(Nc3ccc4ncsc4c3)c12)C(CO)CN(C)C (mixture of isomers) | ≤ 0.01 µM
COc1cc(O[C@H](C)C2COC2)c2c(Nc3ccc4ncsc4c3F)ncnc2c1 (single isomer, unassigned) [Example 82] | 0.0101 to 0.05 µM
COC[C@@H](C)Oc1cc(-c2cnn(C)c2)cc2ncnc(Nc3ccc4ncsc4c3F)c12 | ≤ 0.01 µM
CN1CC[C@@](C)(COc2cc(-c3cnn(C)c3)cc3ncnc(Nc4ccc5ncsc5c4)c23)C1=O (single isomer, unassigned) [Example 55] | 0.0101 to 0.05 µM
C[C@H](Oc1cc(-c2cnn(C)c2)cc2ncnc(Nc3ccc4ncsc4c3F)c12)C1COC1 (single isomer, unassigned) | ≤ 0.01 µM
